The reported measurements were obtained from PubChem BioAssay (NCI).

# maps each entry to its growth inhibition
Assay: NCI Yeast Anticancer Drug Screen. Data for the mlh1 rad18 strain (AID 175)
Settings: S. cerevisiae mlh1 rad18 strain growth inhibition; at 50.0 µM; active compounds read high
Description: Growth inhibition of yeast strains with defined genetic alterations is measured as a screen for potential anti-cancer activity. Selected strains with alterations in DNA damage repair or cell cycle control were exposed to compounds and growth inhibition was measured relative to vehicle treated controls. The strain used in this assay is mlh1 rad18
About 79,000 compounds went through this panel and 15% of them were active in at least one assay; those are over-represented in the sample as a whole.
quantity_name: growth inhibition (%)

INSERT INTO assay_data (compound, recorded_measurement) VALUES
  ('O=C1C=CC(=O)c2cc(Sc3ccccc3)c(=O)ccc21', 87),
  ('Cc1[nH]nc(C(F)(F)F)c1N=NN1CCOCC1', 99.5),
  ('O=C(Nc1ccccc1)c1ccc([N+](=O)[O-])o1', 98.5),
  ('COc1cc(C2OC(=O)c3ccccc3S2)ccc1O (stereo unspecified)', 99.5),
  ('O=C1c2ccccc2C(=O)c2cc(O)ccc21', 85),
  ('N#Cc1ccc([N+](=O)[O-])cc1C#N', 99.5),
  ('COc1ccc(CCN2CC(=O)N3CSCC3C2=O)cc1OC (stereo unspecified)', 37.2),
  ('CCOC(=O)c1cnc2ccc(C3CCCCC3)cc2c1Nc1ccc2c(c1)OCO2', 25.4),
  ('COc1cc(CCN=Cc2cc(Cl)cc(Cl)c2O)c([N+](=O)[O-])cc1OC', 62.6),
  ('COc1ccc(CCC2(C)OCCC(C)O2)cc1 (stereo unspecified)', -26.8),
  ('C=CC(=O)Oc1ccccc1/C=C/C(=O)CCCCCC', 96),
  ('O=C1c2ccccc2C(=O)c2cc(N3C(=O)C=CC3=O)ccc21', 91.5),
  ('NC(=O)N/N=C/c1ccc(Cl)s1', 89.2),
  ('CCOC(=O)c1ccc(NC(=O)O/N=C(/Cl)CC)cc1', 69.7),
  ('C=CCNC(=O)NC(=O)CSC1=NNC2(C(=O)N1)c1ccccc1-c1ccccc12', 86.7),
  ('CC1CN(CC2CCCCCCCCCCC2=O)CC(C)O1 (stereo unspecified)', 69.9);
